# MEASURED TARGET: TDP-43 (Homo sapiens, UniProt Q13148 1-414)
# Sequence (Q13148 whole entry): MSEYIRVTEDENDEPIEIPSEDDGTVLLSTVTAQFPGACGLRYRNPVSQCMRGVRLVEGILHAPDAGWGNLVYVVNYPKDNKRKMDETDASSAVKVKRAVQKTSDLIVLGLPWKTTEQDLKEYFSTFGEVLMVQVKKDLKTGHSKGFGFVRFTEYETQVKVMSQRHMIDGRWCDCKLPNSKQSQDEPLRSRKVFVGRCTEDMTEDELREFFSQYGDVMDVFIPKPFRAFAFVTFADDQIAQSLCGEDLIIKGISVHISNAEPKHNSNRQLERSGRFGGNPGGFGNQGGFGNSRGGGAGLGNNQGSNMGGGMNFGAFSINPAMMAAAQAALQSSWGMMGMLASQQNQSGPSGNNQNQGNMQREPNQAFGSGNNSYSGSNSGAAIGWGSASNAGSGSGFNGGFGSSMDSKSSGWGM
# PROCEDURE DETAILS: RNA Bind-n-Seq with designed 260-mer pool; 25 mM Tris-HCl, 150 mM KCl, 3 mM MgCl2, BSA (printed 500 mg/mL), 20 units/mL SUPERase IN; pH not stated; 500 nM RNA pool, 1 h, 4 C; TDP-43 5, 50, 500 nM; high values mean tight binding
# STUDY CONDITIONS: protein: recombinant; tags: SBP (GST cleaved off with PreScission; pGEX-GST-SBP)
In all, about 9,900 sequences were measured (“r (bound/input frequency ratio)”: median about 0.7, highest 2% from about 6.5 on). The sample as a whole holds a higher share of the highest values than the screen did.
QUANTITY KIND: binding signal

Looking for the measured binding signal of ENSMUSG00000029028.20|Lrrc47 (ssRNA) RNA: GGGAGUUCUACAGUCCGACGAUCGCUUCGAUAUCCGCAUGCUAUGUGGGUGUGCUGUAGGUGUCUGUGUGGGUGUGGGUGUGCUGUAGGUGUCUGUGUGGGUGUGGGUGUGCUAUAGGUAUCUGUGGGUGUGCUGUAGGUGUCUGUGUGGGUGUGCUGUAGGUGUCUGUGUAGGUGUGGGUGUGCUGUAGGUGUCUGUGUGGGUGUGCUAGGUGUCUGUAUAGGUGUGGGUGUGCUGUAGAUGUCUGUGUAGGUAUGGGUGUGCUGUAGAUCUUUGUAGGUGUAGGUAUGCUGUAGGUAUCUGCUCUUGCGGUCGCACUAGUGUGGAAUUCUCGGGUGUCAAGG , can you help? 5.01 R (bound/input frequency ratio)

Query: binding signal; subject: ENSMUSG00000029028.28|Lrrc47 (ssRNA) RNA: GGGAGUUCUACAGUCCGACGAUCGCUUCGAUAUCCGCAUGCUAUCUGUGUGGGUGUGGGUGUGCUAUAGGUAUCUGUGGGUGUGCUGUAGGUGUCUGUGUGGGUGUGCUGUAGGUGUCUGUGUAGGUGUGGGUGUGCUGUAGGUGUCUGUGUGGGUGUGCUAGGUGUCUGUAUAGGUGUGGGUGUGCUGUAGAUGUCUGUGUAGGUAUGGGUGUGCUGUAGAUCUUUGUAGGUGUAGGUAUGCUGUAGGUAUCUGGGUGUGGGUAUGCUGUAGAUGUCUGUGUAGGUGUGGAUAUGCUGUAGGCUCUUGCGGUCGCACUAGUGUGGAAUUCUCGGGUGUCAAGG 6.68 R (bound/input frequency ratio)
